Entries and their composite z-score
assay_summary: small-molecule binders of probe aNOTCH3, primary screen, biochemical, small-molecule microarray, 635/667 nm fluorescence (AID 1120);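 also: probe is a biotin-tagged antibody raised against NOTCH3 rather than NOTCH3 protein; score merges spot fluorescence near 667 nm with spot signal to noise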
condition: higher = more signal
Please reply with the value in numeric form only.

Solved entries (count: 4):
CC(C)C(=C=CC[C@@H](O)c1ccccc1OCCO)C[C@@H](O)c1ccccn1 : -0.0847
C=C(COC)/C(=C/C[C@H](OC(=O)c1ccncc1)c1cccc(OCCO)c1)c1cc(C(=O)OC)ccc1OC : -0.0006
C=CCN1C(=O)[C@]2(O[C@H](CCO)[C@@H]([Si](C)(C)c3ccc(OC)cc3)[C@@H]2C)c2cc(NC(=O)[C@H](C)O)ccc21 : 0.0203
CC(C)CNC(=O)[C@@]1(c2ccc([N+](=O)[O-])cc2)CC(=O)N(CC23CC4CC(CC(C4)C2)C3)[C@@H]1c1ccc(CO)cc1 : 0.157

Note: attention shifts to another entry.
QUERY: Give the measured composite z-score of COc1ccc([Si](C)(C)[C@H]2[C@H](CCn3cc(CCO)nn3)O[C@@]3(C(=O)N(Cc4ccc(N5CCOC5=O)cc4)c4ccccc43)[C@@H]2C)cc1 .
RESULT: -0.0126

* * *

assay_summary: mitochondrial membrane potential change in A549 cells, profiling panel, cell-based, JC-1 fluorescence, basal, 24 h, 100 nL (AID 1138);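 also: A549 lung adenocarcinoma cells under basal conditions with no added stimulus; test concentration not given here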
condition: higher = more signal
Each entry falls in a class defined on z-score; the bands are low = under -0.6, middle = from -0.6 up to 0.4, high = 0.4 and over

Worked set:
CCOC(=O)C[C@H]1[C@H](OC(=O)c2ccc(-c3ccccc3)cc2)[C@@H](NC(=O)Cc2ccc(OC)cc2)c2cc(OCCCO)ccc2N1C(=O)c1ccc2ccccc2n1 : high
COCCOC(=O)N1C(=O)[C@@]2(c3cc(C#CCNC(N)=O)ccc31)[C@H](C(=O)N1CCc3cc(OC)c(OC)cc3C1)[C@H]1C(=O)O[C@H](c3ccccc3)[C@H](c3ccccc3)N1[C@@H]2c1ccc(OCCO)cc1 : low

QUERY: Form: Item = C=C[C@H](C)[C@@H](O)c1ccc(O)c2ccccc12 ; Class = ?
RESULT: middle

QUERY: # bin label for CC(C)c1ccc(NN2C(C(O)c3cccc(O)c3)C=CC3C(=O)N(c4ccccc4)C(=O)C32)cc1 (centres undefined)
RESULT: middle

QUERY: Band for the recorded z-score of COC(=O)[C@@]1(Cc2ccccc2)[C@H]2c3cc(C(=O)N(C)C)n(Cc4c(-c5ccccc5)noc4C)c3C[C@H]2CN1C(=O)c1ccccc1 ?
RESULT: high

QUERY: Looking at COCCOC(=O)N1C(=O)[C@@]2(c3cc(C#CCNC(N)=O)ccc31)[C@H](c1ccc(O)cc1)N1[C@H](c3ccccc3)[C@H](c3ccccc3)OC(=O)[C@H]1[C@@H]2C(=O)NC[C@H](O)c1ccccc1 , which class would you pick?
RESULT: low

* * *

assay_summary: small-molecule microarray binders of probe aDKK1, primary screen, biochemical, biotinylated probe, 635/667 nm fluorescence (AID 1099);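 also: score merges 667nm spot fluorescence with signal to noise across triplicate slides; reference of the scale not given here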
condition: higher = more signal
Recorded composite z-score for the following compounds

Examples with their reported composite z-score follow.
CC(=CC1CCCCC1)[C@@H](NC(=O)c1ccc(C(F)(F)F)cc1)c1ccc(-c2ccccc2)cc1 : 0.41
CCN(CC)c1ccc(N2CC=CC34O[C@@H]5/C=C\CCCOC(=O)C5[C@H]3C(=O)N(C(CO)C(C)C)[C@@H]4C2=O)cc1 (some centres not stated) : -0.252
O=C1OCCC=C[C@H]2OC34C=CCN(Cc5ccccc5)C(=O)[C@H]3N(CCCCCO)C(=O)[C@@H]4C12 (some centres not stated) : -0.285
COC(=O)[C@@]1(Cc2ccc(F)cc2)[C@H]2c3cc(C(=O)N4CCCC4)n(Cc4cccc5ccccc45)c3C[C@H]2CN1C(=O)c1ccccc1 : 0.479
CC(C)c1ccc(NN2C(C(O)c3ccc(N(C)C)cc3)C=CC3C(=O)N(c4ccccc4)C(=O)C32)cc1 (configuration not stated) : 0.64

Now for another entry.
QUERY: Any idea what composite z-score was measured for CN(C)C(=O)[C@@]1(CCC(=O)OC(C)(C)C)N=C(c2ccc(OCCCO)cc2)O[C@H]1c1ccccc1 ?
RESULT: 0.559

* * *

target_entity: Fibroblast growth factor 2 (Homo sapiens) (UniProt P09038)
Sequence (P09038 whole entry, looked up): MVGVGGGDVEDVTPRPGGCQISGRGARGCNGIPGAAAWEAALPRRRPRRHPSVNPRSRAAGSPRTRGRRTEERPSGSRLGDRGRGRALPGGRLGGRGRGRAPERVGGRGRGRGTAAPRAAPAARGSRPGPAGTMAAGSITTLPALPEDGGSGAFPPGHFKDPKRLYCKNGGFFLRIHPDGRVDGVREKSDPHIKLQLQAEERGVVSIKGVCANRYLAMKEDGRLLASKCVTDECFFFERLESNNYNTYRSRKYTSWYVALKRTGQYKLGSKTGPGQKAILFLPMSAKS
assay_summary: FGF2 binders on small-molecule microarrays, primary screen, biochemical, small-molecule microarray, 635/667 nm fluorescence (AID 1133)
condition: small-molecule microarray binding, FGF2, fluorescence 635/667; higher = more signal
measured_property: composite z-score
Could you keep your reply to the number by itself?

COCCOC(=O)N1C(=O)[C@@]2(c3cc(C#CCNC(N)=O)ccc31)[C@H](c1ccc(O)cc1)N1[C@H](c3ccccc3)[C@H](c3ccccc3)OC(=O)[C@H]1[C@@H]2C(=O)NC[C@H](O)c1ccccc1 : 1.19
COc1ccc(C(O)C2C=CC3C(=O)N(C)C(=O)C3N2Nc2ccccc2)cc1OCc1ccccc1 (centres undefined) : -0.0667
COc1ccc([Si](C)(C)[C@H]2[C@H](CCn3cc([C@H](O)c4ccccc4)nn3)O[C@@]3(C(=O)N(Cc4cccc(N5CCC5=O)c4)c4ccccc43)[C@@H]2C)cc1 : 1.54

Next up:
QUERY: // returns reported composite z-score for input Cc1cc(C)cc(N2C(=O)CS(=O)(=O)C2c2cccc([N+](=O)[O-])c2)c1 (centres undefined)
RESULT: 0.126

* * *

assay_summary: yeast growth modulation, basal conditions, primary screen, YJM789 clinical isolate, OD600, 24 h (AID 1089);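 also: growth of clinical yeast isolate S. cerevisiae YJM 789 seeded 1000 cells per well; test concentration not given here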
condition: S. cerevisiae YJM789 growth, higher = more signal, called active from +8 up or from −8 down
Lab note: compare z-score against 0.5. Equal or greater, write satisfied. Smaller, write not satisfied.

Below are worked cases with known answers.
CCOC(=O)C1=C[C@@H](CC)N(S(=O)(=O)c2ccc(C)cc2)[C@H]1c1ccccc1 : not satisfied
COC(=O)[C@@]1(Cc2ccc(OC)cc2)[C@H]2c3cc(C(=O)N4CCCC4)n(Cc4ccccn4)c3C[C@H]2CN1C(=O)c1ccccc1 : satisfied
COCCOC(=O)N1C(=O)[C@@]2(c3ccccc31)[C@H](C(=O)NC[C@H](O)c1ccccc1)[C@H]1C(=O)O[C@H](c3ccccc3)[C@H](c3ccccc3)N1[C@@H]2c1ccc(OCCO)cc1 : satisfied
COCCOC(=O)N1C(=O)[C@@]2(c3cc(C#CCNC(N)=O)ccc31)[C@H](c1ccc(O)cc1)N1[C@H](c3ccccc3)[C@H](c3ccccc3)OC(=O)[C@H]1[C@@H]2C(=O)Nc1nc2ccccc2s1 : not satisfied
NCCCCCCNC(=O)[C@H]1C[C@H]2C(=O)NCC(=O)N2[C@H]1c1cccc(OCCO)c1 : not satisfied
COc1ccc(C(O)C2C=CC3C(=O)N(C)C(=O)C3N2Nc2ccccc2)cc1OCc1ccccc1 (centres undefined) : not satisfied
C=CC[C@@]1(C(=O)NCC(O)CO)N=C(c2ccc(OCCCO)cc2)O[C@@H]1c1ccccc1N=[N+]=[N-] (some centres undefined) : not satisfied
C=CCNC(=O)[C@H]1[C@@H]2C(=O)O[C@@H](c3ccccc3)[C@@H](c3ccccc3)N2[C@@H](c2ccc(O)cc2)[C@]12C(=O)N(C(=O)OCCOC)c1ccc(C#CCCO)cc12 : satisfied

QUERY: Tell me whether z-score is at least 0.5 here: O=c1oc(-c2ccccc2)nc2cc(Br)ccc12
RESULT: satisfied

QUERY: Reported z-score at or above 0.5? COC(=O)c1c(CC[C@@H](CO)NC(=O)N[C@@H](Cc2ccccc2)Cn2cc(C3(O)CCCCC3)nn2)oc(C(C)=O)c1C(=O)OC
RESULT: not satisfied

QUERY: Decide: is the reported value of z-score for O=C1C2C=CC(C(O)c3ccc(F)cc3)N(Nc3ccccc3)C2C(=O)N1c1ccccc1 (centres undefined) equal to or greater than 0.5?
RESULT: satisfied

QUERY: Is z-score for Cc1cc(C)cc(N2C(=O)CS(=O)(=O)C2c2cccc([N+](=O)[O-])c2)c1 (centres undefined) at or above 0.5?
RESULT: not satisfied

QUERY: # bool: z-score of CCOC(=O)C[C@H]1[C@H](OC(=O)c2ccc(-c3ccccc3)cc2)[C@@H](NC(=O)c2ccc3ccccc3c2)c2cc(OCCCO)ccc2N1C(=O)Cc1ccc(OC)cc1 >= 0.5
RESULT: not satisfied

* * *

assay_summary: PSAC antagonists in infected red cells, primary screen, cell-based, P. falciparum Indochina, OD700, 1 h (AID 1154)
condition: P. falciparum Indochina infected RBC osmotic lysis, higher = more signal, called active from +8 up or from −8 down
Assign a class from recorded z-score; defined classes: label 0: < 1; label 1: ≥ 1 and < 4; label 2: ≥ 4

Example cases with answers are listed next.
O=C1O[C@@H](c2ccccc2)[C@@H](c2ccccc2)N2[C@@H](c3ccccc3OCCO)[C@]3(C(=O)Nc4ccc(C#CC5(O)CCCCCC5)cc43)[C@@H](C(=O)Nc3nc4ccccc4s3)[C@H]12 : label 1
O=C1O[C@H](c2ccccc2)[C@H](c2ccccc2)N2[C@H]1[C@@H](C(=O)O)[C@]1(C(=O)Nc3ccc(C#CC4(O)CCCCCC4)cc31)[C@H]2c1ccc(OCCO)cc1 : label 1
CCOC(=O)C[C@H]1[C@H](OC(=O)c2ccc(-c3ccccc3)cc2)[C@@H](NC(=O)c2ccc(-c3ccccc3)cc2)c2cc(OCCCO)ccc2N1C(=O)Cc1ccc(OC)cc1 : label 2
[N-]=[N+]=NCc1ccccc1C[C@]1(C(=O)NCCN2CCOCC2)N=C(c2ccc(OCCCO)cc2)O[C@H]1c1ccccc1N=[N+]=[N-] : label 2

QUERY: # bin lookup: classify COc1ccc(CCN2C(=O)[C@@]3(Cc4ccccc42)c2ccccc2C(=O)N(Cc2ccccc2Cl)[C@H]3c2ccc(CO)cc2)cc1 by its z-score
RESULT: label 1

QUERY: The entry to classify is CCCCC=C[C@@H](NC(=O)c1cccs1)c1ccccc1 ; which class holds it?
RESULT: label 2

QUERY: Class? Entry: N#Cc1ccc(NN2C(C(O)c3cccs3)C=CC3C(=O)N(c4ccccc4)C(=O)C32)cc1 (centres undefined)
RESULT: label 2

QUERY: Which z-score band matches C=CCC(OC(C)=O)[C@@H]1[C@@H](N(Cc2cccc3ccccc23)C(=O)c2cccc3ccccc23)c2cc(OCCCO)ccc2N1C(=O)c1ccc2ccccc2n1 (some centres undefined) ?
RESULT: label 1

QUERY: Which class does CCOC(=O)C1=CC[C@@H](c2ccccc2)N(S(=O)(=O)c2ccc(C)cc2)[C@H]1C(=O)OCC fall in?
RESULT: label 1

QUERY: Bin? C=CCNC(=O)[C@H]1[C@@H]2C(=O)O[C@@H](c3ccccc3)[C@@H](c3ccccc3)N2[C@@H](c2ccc(O)cc2)[C@]12C(=O)N(C(=O)OCCOC)c1ccc(C#CCCO)cc12
RESULT: label 1
